Hey, just so you know, these numbers are from the supplement of paper PMC10126150.

- Tested on: ATP;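 note: ATP exposure 15 min at 22 °C before imaging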
- measurement protocol: switch fluorescence ratio, 500 uM ATP over buffer (Cy3 cluster intensity, sum of 5 cycles each) (fold (ratio)); higher = stronger signal-on switching upon ATP binding; sequences stand for … in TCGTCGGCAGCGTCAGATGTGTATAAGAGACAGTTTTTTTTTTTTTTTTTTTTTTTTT…TC
- condition description: aptamer strand: ATP DNA aptamer (quencher-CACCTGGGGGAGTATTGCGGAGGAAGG + anchor), 100 nM annealed; ATP concentration: 500 uM
parameter measured: switch fluorescence ratio

[[record]]
sequence_text = "GTGTGTTTGC"
target_system = "ATP"
parameter_measured = "switch fluorescence ratio"
assay_value = 1

[[record]]
sequence_text = "GCTAATTATA"
target_system = "ATP"
parameter_measured = "switch fluorescence ratio"
assay_value = 1.01

[[record]]
sequence_text = "TTTCGGGTAC"
target_system = "ATP"
parameter_measured = "switch fluorescence ratio"
assay_value = 1.2

[[record]]
sequence_text = "CCAGGAACTC"
target_system = "ATP"
parameter_measured = "switch fluorescence ratio"
assay_value = 1.02

[[record]]
sequence_text = "TAATCGTC"
target_system = "ATP"
parameter_measured = "switch fluorescence ratio"
assay_value = 0.968

[[record]]
sequence_text = "ACGGGTTGGG"
target_system = "ATP"
parameter_measured = "switch fluorescence ratio"
assay_value = 1.02

[[record]]
sequence_text = "TATTGTGTGT"
target_system = "ATP"
parameter_measured = "switch fluorescence ratio"
assay_value = 0.987

[[record]]
sequence_text = "TATAACGGAG"
target_system = "ATP"
parameter_measured = "switch fluorescence ratio"
assay_value = 1.01

[[record]]
sequence_text = "TTTGGTTTCC"
target_system = "ATP"
parameter_measured = "switch fluorescence ratio"
assay_value = 1.01

[[record]]
sequence_text = "TTTTATTAAT"
target_system = "ATP"
parameter_measured = "switch fluorescence ratio"
assay_value = 0.978

[[record]]
sequence_text = "AATATTTGGT"
target_system = "ATP"
parameter_measured = "switch fluorescence ratio"
assay_value = 0.974


* * *

- Tested on: ATP;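 note: ATP exposure 15 min at 22 °C before imaging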
- measurement protocol: switch fluorescence ratio, 500 uM ATP over buffer (Cy3 cluster intensity, sum of 5 cycles each) (fold (ratio)); higher = stronger signal-on switching upon ATP binding; sequences stand for … in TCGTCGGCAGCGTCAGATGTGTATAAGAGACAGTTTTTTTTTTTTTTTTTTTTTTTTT…TC
- condition description: aptamer strand: ATP DNA aptamer (quencher-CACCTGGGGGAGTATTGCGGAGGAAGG + anchor), 100 nM annealed; ATP concentration: 500 uM
parameter measured: switch fluorescence ratio

[[record]]
sequence_text = "GAGGGGGCAC"
parameter_measured = "switch fluorescence ratio"
assay_value = 1.03

[[record]]
sequence_text = "TTTTAGGAAT"
parameter_measured = "switch fluorescence ratio"
assay_value = 0.997

[[record]]
sequence_text = "GGGGTTTCCT"
parameter_measured = "switch fluorescence ratio"
assay_value = 1.11

[[record]]
sequence_text = "TCTCTTCCGT"
parameter_measured = "switch fluorescence ratio"
assay_value = 1.22

[[record]]
sequence_text = "AAAGTGCTAT"
parameter_measured = "switch fluorescence ratio"
assay_value = 1.02

[[record]]
sequence_text = "CTAGGGAAAG"
parameter_measured = "switch fluorescence ratio"
assay_value = 0.989

[[record]]
sequence_text = "TAAGGCTGAA"
parameter_measured = "switch fluorescence ratio"
assay_value = 1.02

[[record]]
sequence_text = "TATCGTTTTT"
parameter_measured = "switch fluorescence ratio"
assay_value = 0.987

[[record]]
sequence_text = "TTTTTGGCCC"
parameter_measured = "switch fluorescence ratio"
assay_value = 0.965

[[record]]
sequence_text = "TCTTGTCGGT"
parameter_measured = "switch fluorescence ratio"
assay_value = 1

[[record]]
sequence_text = "AGTAGTACGG"
parameter_measured = "switch fluorescence ratio"
assay_value = 1

[[record]]
sequence_text = "CATGCTTCAT"
parameter_measured = "switch fluorescence ratio"
assay_value = 0.988

[[record]]
sequence_text = "TCAGGTGTGT"
parameter_measured = "switch fluorescence ratio"
assay_value = 1.36

[[record]]
sequence_text = "TAGTCAGTCG"
parameter_measured = "switch fluorescence ratio"
assay_value = 1.08

[[record]]
sequence_text = "CCCTGGACGG"
parameter_measured = "switch fluorescence ratio"
assay_value = 0.988

[[record]]
sequence_text = "ACCCTGGACC"
parameter_measured = "switch fluorescence ratio"
assay_value = 1.07

[[record]]
sequence_text = "TCGTATAGAG"
parameter_measured = "switch fluorescence ratio"
assay_value = 1

[[record]]
sequence_text = "GGACAGTTGT"
parameter_measured = "switch fluorescence ratio"
assay_value = 1.01

[[record]]
sequence_text = "GGGAAACGGG"
parameter_measured = "switch fluorescence ratio"
assay_value = 0.995

[[record]]
sequence_text = "ATTTTGAGGT"
parameter_measured = "switch fluorescence ratio"
assay_value = 0.987


* * *

- Test system: ATP;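 note: ATP exposure 15 min at 22 °C before imaging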
- measurement protocol: switch fluorescence ratio, 500 uM ATP over buffer (Cy3 cluster intensity, sum of 5 cycles each) (fold (ratio)); higher = stronger signal-on switching upon ATP binding; sequences stand for … in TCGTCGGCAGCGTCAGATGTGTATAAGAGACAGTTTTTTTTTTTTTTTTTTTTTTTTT…TC
- condition description: aptamer strand: ATP DNA aptamer (quencher-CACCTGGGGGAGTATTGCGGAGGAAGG + anchor), 100 nM annealed; ATP concentration: 500 uM
Respond with True for switch fluorescence ratio values of 1 and above, False for values below.

[[record]]
sequence_text = "GTGGTTGGAA"
target_system = "ATP"
class_assignment = "False"

[[record]]
sequence_text = "AGACTTTGAG"
target_system = "ATP"
class_assignment = "True"

[[record]]
sequence_text = "TTCCCCGGCA"
target_system = "ATP"
class_assignment = "True"

[[record]]
sequence_text = "CTTGGGGTGC"
target_system = "ATP"
class_assignment = "True"

[[record]]
sequence_text = "CAGATAGGCT"
target_system = "ATP"
class_assignment = "True"

[[record]]
sequence_text = "CAGATAAAAA"
target_system = "ATP"
class_assignment = "True"

[[record]]
sequence_text = "GGATTCTAGG"
target_system = "ATP"
class_assignment = "False"

[[record]]
sequence_text = "CTAGGTGATC"
target_system = "ATP"
class_assignment = "True"

[[record]]
sequence_text = "CACTAATGAG"
target_system = "ATP"
class_assignment = "True"

[[record]]
sequence_text = "CGGGTTCGAG"
target_system = "ATP"
class_assignment = "False"

[[record]]
sequence_text = "GACGGTGCAT"
target_system = "ATP"
class_assignment = "True"


* * *

Reported switch fluorescence ratio values follow for various sequences
- System: ATP;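 note: ATP exposure 15 min at 22 °C before imaging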
- measurement protocol: switch fluorescence ratio, 500 uM ATP over buffer (Cy3 cluster intensity, sum of 5 cycles each) (fold (ratio)); higher = stronger signal-on switching upon ATP binding; sequences stand for … in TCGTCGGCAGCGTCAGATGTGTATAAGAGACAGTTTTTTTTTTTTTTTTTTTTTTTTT…TC
- condition description: aptamer strand: ATP DNA aptamer (quencher-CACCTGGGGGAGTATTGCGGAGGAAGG + anchor), 100 nM annealed; ATP concentration: 500 uM
parameter measured: switch fluorescence ratio

[[record]]
sequence_text = "AAAAGTGTAT"
target_system = "ATP"
assay_value = 0.98

[[record]]
sequence_text = "TTAAGTAGGA"
target_system = "ATP"
assay_value = 1

[[record]]
sequence_text = "AATTGTATGG"
target_system = "ATP"
assay_value = 1.04

[[record]]
sequence_text = "CCATATAGAG"
target_system = "ATP"
assay_value = 1.02

[[record]]
sequence_text = "GATTAAACGG"
target_system = "ATP"
assay_value = 1.04

[[record]]
sequence_text = "CAATGTTATC"
target_system = "ATP"
assay_value = 1.01

[[record]]
sequence_text = "TCCGAACCTT"
target_system = "ATP"
assay_value = 1.88

[[record]]
sequence_text = "AGTTCGGCTA"
target_system = "ATP"
assay_value = 0.998

[[record]]
sequence_text = "ATTGTAGTCA"
target_system = "ATP"
assay_value = 0.973

[[record]]
sequence_text = "TTTTGCTGCG"
target_system = "ATP"
assay_value = 1.02

[[record]]
sequence_text = "AAGATTCATT"
target_system = "ATP"
assay_value = 0.998

[[record]]
sequence_text = "CTCCGAGGGG"
target_system = "ATP"
assay_value = 1.31

[[record]]
sequence_text = "TTTTATTCCT"
target_system = "ATP"
assay_value = 1.04

[[record]]
sequence_text = "TGGGGGATTA"
target_system = "ATP"
assay_value = 0.999

[[record]]
sequence_text = "TTGAGTTATT"
target_system = "ATP"
assay_value = 0.96

[[record]]
sequence_text = "GATAGGGGAA"
target_system = "ATP"
assay_value = 0.978

[[record]]
sequence_text = "CAAATGGTTA"
target_system = "ATP"
assay_value = 0.974

[[record]]
sequence_text = "ATGTGCGTAG"
target_system = "ATP"
assay_value = 1.01

[[record]]
sequence_text = "TAAGTCGAAA"
target_system = "ATP"
assay_value = 1

[[record]]
sequence_text = "TATTGCCGGG"
target_system = "ATP"
assay_value = 0.985

